Below: a set of entries, each annotated with reported MFI.
Biological target: T1, human LILRA1 (human, UniProt O75019 17-489)
T1 construct: whole, on cells; also called hLILRA1
T1 sequence (O75019 17-489): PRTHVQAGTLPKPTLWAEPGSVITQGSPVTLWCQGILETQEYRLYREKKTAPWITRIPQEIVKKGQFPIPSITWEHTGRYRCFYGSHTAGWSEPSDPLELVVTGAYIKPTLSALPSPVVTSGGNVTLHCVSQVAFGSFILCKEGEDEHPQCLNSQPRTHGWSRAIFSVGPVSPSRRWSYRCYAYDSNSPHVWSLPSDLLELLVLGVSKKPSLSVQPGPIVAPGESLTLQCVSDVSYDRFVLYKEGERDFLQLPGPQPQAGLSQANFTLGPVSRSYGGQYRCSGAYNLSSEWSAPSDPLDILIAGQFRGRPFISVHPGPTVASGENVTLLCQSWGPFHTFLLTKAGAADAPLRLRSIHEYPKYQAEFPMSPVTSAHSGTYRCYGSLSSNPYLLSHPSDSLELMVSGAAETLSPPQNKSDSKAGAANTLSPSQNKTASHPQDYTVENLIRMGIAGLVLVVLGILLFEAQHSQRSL
Test: FACS, 293F-hLILRA1 cells

{"binder": "10-H9-E3-G3 (antibody, V domains shown, mouse monoclonal hybridoma antibody) VH: EVQRVESGGGLVQPGGSRKLSCAASGFTFSSFGMHWVRQAPEKGLEWVAYISSGSSAMYYADTVKGRFTISRDNPKNTLFLQMTSLRSEDTAMYYCARSDGKGAMDYWGQGTSVTVSS VL: DIQMTQTTSSLSASLGDRVTISCRASQDISNYLNWYQQKPDGTVKLLVYYTSRLHSGVPSRFSGSGSGTDYSLTISNLEQEDIATYFCQQGNTLPWTFGGGTKLEIK", "output.unit": "MFI", "MFI": 21.6}
{"binder": "27-G5-E9-B8 (antibody, V domains shown, mouse monoclonal hybridoma antibody) VH: EVQLVESGGGLVQPGGSRKLSCAASGFTFSSFGMHWVRQAPEKGLEWVAYISSGSSTIYYADTVKGRFTISRDNPKNTLFLQMTSLRSEDTAMYYCARSTGTGAMDYWGQGTSVTVSS VL: DIQMTQTTSSLSASLGDSVTFSCRASQDISNYLNWYQQKPDGTVKLLISYTSRLHSGVPSRFSGSGSGTDYSLTISNLEQEDIATYFCQQGNALPWTFGGGTKLEIK", "output.unit": "MFI", "MFI": 24}
{"binder": "2-H1-D7-E5-D5 (antibody, V domains shown, mouse monoclonal hybridoma antibody) VH: EVHLVESGGGLVQPGGSRKLSCAASGFTFSSFGMHWVRQPPEKGLEWVAYISSGSSSIYYADTVKGRFTISRDNPKNTLFLQMTSLRSEDTAMYYCARGTGTGAMDYWGQGTSVTVSS VL: DIQMTQTTSSLSASLGDRVTISCRTSQDISNYLNWYQQKPDGTVKLLIYYTSKLHSGVPSRFSGSGSGTDYSLTISNLDQEDIATYFCQQGNTLPWTFGGGTKLEIK", "output.unit": "MFI", "MFI": 21.9}
{"binder": "26-H9-B9-B7 (antibody, V domains shown, mouse monoclonal hybridoma antibody) VH: EVQRVESGGGLVQPGGSRKLSCAASGFTFSSFGMHWVRQAPEKGLEWVAYISSGSSTIYYADTVKGRFTISRDNPKNTLFLQMTSLRSEDTAMYYCARSDGKGAMDYWGQGTSVTVSS VL: DIVMTQSTSSLSASLGDRVTISCRASQDISNYLNWYQQKPDGTVKLLIYYTSRLHSGVPSRFSGSGSGTDYSLTISNLEQEDIATYFCQQGNTLPWTFGGGTKLEIK", "output.unit": "MFI", "MFI": 21.3}
{"binder": "27-D11-C2-A10 (antibody, V domains shown, mouse monoclonal hybridoma antibody) VH: EVQLVESGGGLVQPGGSRKLSCAASGFTFSVFGVHWVRQAPEKGLEWVAYISSGSNTIHYADTVKGRFTISRDIPKNTLFLQMTSLRSEDTAMYYCARSSGTGAMDYWGQGTSVTVSS VL: DIQMTQSTSSLSASLGDRVSISCRASQDISNYLNWYQQKPDGAVKLLIYYTSRLHSGVPSRFSGSGSGTDYSLTISNLDQEDIATYFCQQGNTLPWTFGGGTKLELK", "output.unit": "MFI", "MFI": 21.6}
{"binder": "48-E11-H7-B5 (antibody, V domains shown, mouse monoclonal hybridoma antibody) VH: EVQLVESGGGLVKPGGSLKLSCAASGFTFSSYAMSWVRQTPEKRLEWVASITIGDDTYYPDSVKGRFTISRDHAKNILYLQVSSLRSEDTAMYSCARGVNSYGSSYRYFDVWGAGTTVTVSS VL: DIVMTQSHKFMSTSVGDRVSITCKASQDVSTAVAWYQQKPGQSPKLLIYWASTRHTGVPDRFTGSGSGTDYTLTISSVQAEDLALYYCQQHYSIPFTFGAGTKLEK", "output.unit": "MFI", "MFI": 25.1}
{"binder": "44-F10-B6-D4 (antibody, V domains shown, mouse monoclonal hybridoma antibody) VH: EVHLVESGGGLVKPGGSLKLSCAASGFTFSSYAMSWVRQTPEKRLEWVATISSGGSYIYYPDSVKGRFTISRDNAKNTLYLQMSSLRSEDTAMYYCARQDWDGGDYYAMDYWGQGTSVTVSS VL: DIVMTQSPSSLAVSAGEKVTMSCKSSQSVLYSSNQKNFLAWYQQKPGQSPKLLIYWASTRESGVPDRFTGSGSGTDFTLTISSVQAEDLAVYYCHQYLSSLTFGAGTKLELK", "output.unit": "MFI", "MFI": 25.6}
{"binder": "27-F11-E10-G10 (antibody, V domains shown, mouse monoclonal hybridoma antibody) VH: EVQLVESGGGLVQPGGSRKLSCAASGFTFSSFGMHWVRQAPEKGLEWVAYISSGSSTIYYADTVKGRFSISRDNPKNTLFLQMTSLRSEDTAMFYCARSTGTGAMDYWGQGTSVTVSS VL: DIQMTQTTSSLSASLGDRVTISCRASQDISNYLNWYQQKPDGTVKLLIYYTSRLHSGVPSRFSGSGSGTDYSLTISNLEQEDIATYFCQQGNTLPWTFGGGTKLELK", "output.unit": "MFI", "MFI": 22.1}
{"binder": "4-E6-E4-B12 (antibody, V domains shown, mouse monoclonal hybridoma antibody) VH: EVQLKESGAELVKPGASVKLSCKASGYTFTSHWMHWVKQRPGQGLEWIGEINPSNGRTNYNEKFTSKATLTVDQSSSTAYMQLSSLTSEDSAVYYCARGNLTTVVPFDYWGQGTALTVSS VL: DIVMTQSPSSLSASLGGKVTITCKASQDINKFIAWYQHKPGKGPRLLIHFTSTLQPGIPSRFSGSGSGRDYSFSISNLEPEDIATYFCLQYDLLLTFGGGTKLEIK", "output.unit": "MFI", "MFI": 24.4}
{"binder": "25-G9-G4-C12 (antibody, V domains shown, mouse monoclonal hybridoma antibody) VH: EVQLVESGGDLVKPGGSLKLSCAASGFTFSSHGMSWVRQTPDKRLEWVATINSGGYYTYYPDSVKGRFTISRDNAKNTLYLQMSSLKSEDTAMYYCARGQLGNWYFDVWGAGTTVTVSS VL: DIVMTQSPAIMSASPGEKVTITCSASSSVSYMHWFQQKPGTSPKLWIYSTSNLASGVPARFSGSGSGTSYSLTISRMEAEDAATYYCQQRSSYPLTFGAGTKLELK", "output.unit": "MFI", "MFI": 24.3}
